- Target or test system: T1, human Mdm2 1-125 (human)
- T1 construct: Mdm2, human, residues 1-125; the stretch after the TEV site ENLYFQG of the fusion protein; source: E. coli BL21 (DE3) Rosetta T1R, purified (Ni-NTA, gel filtration)
- T1 sequence (chain, as listed by the source): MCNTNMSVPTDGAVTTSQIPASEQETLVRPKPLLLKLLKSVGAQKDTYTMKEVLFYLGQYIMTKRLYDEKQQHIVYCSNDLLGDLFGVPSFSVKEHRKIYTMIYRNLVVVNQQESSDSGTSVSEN
- Procedure summary: fluorescence polarisation; competitive fluorescence anisotropy: unlabelled peptide titrated against 250 nM Mdm2 (1-125) with 50 nM FAM-labelled 12/1 peptide (FAM-…-NH2); PBS pH 7.4, 0.001% Tween-20; apparent Kd, geometric means
- Measurement conditions: both partners purified
Positions of bridges follow the written chain, without caps; N, C: chain ends. Non-standard residues stand in square brackets, D forms with d. Primed or numbered codes have the meaning given here. Lys(N3) = [N-]=[N+]=NCCCC[C@H](N)C(=O)O; R8 = C=CCCCCCC[C@@](C)(N)C(=O)O; S5 = C=CCCC[C@](C)(N)C(=O)O; Cba′ = not defined here; βAla = NCCC(=O)O
Attribute measured: Kd
Lab note: write values as number then unit, every time.

Look over these answered cases.
{"Binder": "Ac-[Lys(N3)][βAla]LTF[R8]EYWAR[Cba′][S5]SAA-NH2 (staple 6-13; reading uncertain) [AZIDE-ATSP-7041 (Q9R)]", "Kd": "45.9 nM"}
{"Binder": "Ac-[Lys(N3)][βAla]LRF[R8]EYWAQ[Cba′][S5]SAA-NH2 (staple 6-13; reading uncertain) [AZIDE-ATSP-7041 (T2R)]", "Kd": "30.6 nM"}
{"Binder": "Ac-[Lys(N3)][βAla]LTF[R8]EYWAQ[Cba′][S5]RAA-NH2 (staple 6-13; reading uncertain) [AZIDE-ATSP-7041 (S12R)]", "Kd": "78.7 nM"}
{"Binder": "Ac-[Lys(N3)][βAla]LTF[R8]RYWAQ[Cba′][S5]SAA-NH2 (staple 6-13; reading uncertain) [AZIDE-ATSP-7041 (E5R)]", "Kd": "33 nM"}
{"Binder": "KXLTFXEYWAQXXXAA (homo-Arg (hR) at 12; N-terminal acetyl; Lys(N3) and beta-Ala before residue 1; R8 at 4 and S5 at 11 (olefin staple); Cba at 10; C-terminal amide) [AZIDE-ATSP-7041 (S12hR)]", "Kd": "5 nM"}

Next up:
Query: Please supply the value of reported Kd for the item KXLTFXEYWAXXXSAA (homo-Arg (hR) at 9; N-terminal acetyl; Lys(N3) and beta-Ala before residue 1; R8 at 4 and S5 at 11 (olefin staple); Cba at 10; C-terminal amide) [AZIDE-ATSP-7041 (Q9hR)]
Result: 28.5 nM
